Give Average of 2 trials SEPTTR-184 1DP for every item shown.
- Test system: Zymoseptoria tritici (SEPTTR-184)
- PROTOCOL_NOTES: Efficacy of target gene fragments (MgCytB dsRNA tiles) on wheat plants, SEPTTR-184
- Format: in vivo
- Parameters: scale not given here
- MEASUREMENT_PARAMETERS: 50 ppm; 1DP (preventative)
Reply: number alone, nothing else.

Q) Can you share its Average of 2 trials SEPTTR-184 1DP? I mean this molecule: MgCytB-T6: 258 bp dsRNA of Zymoseptoria CytB region T6, location 775-1032 (SEQ ID NO:9) (nucleic acid, listed as Zymoseptoria tritici, complementary strand of dsRNA) GTTATGGCTAACCCTATGCAAACTCCACCTGCTATAGTGCCTGAATGATATTTATTACCTTTCTACGCTATACTAAGATCAATACCTAACAAACTATTAGGTGTGATCGCAATGTTTTCTGCTATATTGATTATAATGATAATGCCAATTACCGATTTAGGTAGAAGTAGAGGATTACAGTTTAGACCTTTAAGCAAGATCACATTTTACATATTTGTTGCTAACTTCTTAGTATTAATGCAATTAGGTGCTAATCAC
A) 72

Q) Which Average of 2 trials SEPTTR-184 1DP value belongs to MgCytB-T3: 116 bp dsRNA of Zymoseptoria CytB region 3, location 279-394 (SEQ ID NO:6) (nucleic acid, listed as Zymoseptoria tritici, long dsRNA, chemistry not given here, further chemistry not given here) TTACCTGCACGTGGGTAGAGGGTTATACTACGGGTCATACAAAGCCCCTAGAACATTAACATGAACAATCGGTACTATAATACTAGTTCTGATGATGGCAACCGCATTCTTAGGGT ?
A) 74

Q) Endpoint output: Average of 2 trials SEPTTR-184 1DP of MgCytB-T5: 172 bp dsRNA of Zymoseptoria CytB region T5, location 173-344 (SEQ ID NO:8) (nucleic acid, listed as Zymoseptoria tritici, complementary strand of dsRNA) TATCTGAAGCATTTAACTCAGTTGAACACATAATGAGAGATGTAAACAATGGATGACTTATACGTTATCTTCACTCTAATACTGCTTCAGCTTTCTTCTTTTTAGTTTACCTGCACGTGGGTAGAGGGTTATACTACGGGTCATACAAAGCCCCTAGAACATTAACATGAAC . Value?
A) 73
